Numbers sourced from patent US6998415B2.

Hi there, I'd appreciate the recorded IC50 for every entry that follows.
Molecular target: COX-2 (UniProt P35354)
Assay: Assay for COX-2 activity in vitro (PGE2 ELISA, recombinant enzyme)
Details: recombinant COX-2, arachidonic acid 10 μM, pre-incubation 10–20 minutes

- COC1(c2cccc(COCc3nc(-c4ccccc4)c(-c4ccc(S(N)(=O)=O)cc4)o3)c2)CCOCC1 [Example 17]: 500 nM

Quick batch: IC50 for everything below.
1. COC1(c2cc(F)cc(OCc3onc(-c4ccccc4)c3-c3ccc(S(N)(=O)=O)cc3)c2)CCOCC1 [Example 16]
2. COC1(c2cc(F)cc(OCC(=O)NCCc3nc(-c4ccccc4)c(-c4ccc(S(N)(=O)=O)cc4)o3)c2)CCOCC1 [Example 22]

Result ::
1. < 100 nM
2. 1100 nM

Record IC50 for all entries; do not skip any.
1. COC1(c2cccc(CSCCc3nc(-c4ccccc4)c(-c4ccc(S(N)(=O)=O)cc4)o3)c2)CCOCC1 [Example 19]
2. COC(=O)C(Cc1cccc(C2(OC)CCOCC2)c1)c1nc(-c2ccccc2)c(-c2ccc(S(N)(=O)=O)cc2)o1 (stereo not drawn) [Example 9]
3. COC1(c2cccc(Oc3nc(-c4ccccc4)c(-c4ccc(S(N)(=O)=O)cc4)o3)c2)CCOCC1 [Example 5]
4. COC1(c2cccc(OCc3nc(-c4ccc(F)cc4)c(-c4ccc(S(C)(=O)=O)cc4)o3)c2)CCOCC1 [Example 2]
5. COc1cccc(SCc2cc(-c3ccc(Cl)cc3)n(-c3ccc(S(N)(=O)=O)cc3)n2)c1 [Example 6]
6. COC1(c2cccc(CSc3nc(-c4ccccc4)c(-c4ccc(S(N)(=O)=O)cc4)o3)c2)CCOCC1 [Example 21]

Result ::
1: < 100 nM; 2: 10000 nM; 3: < 100 nM; 4: 200 nM; 5: < 100 nM; 6: < 100 nM
